test: soluble on expression in E. coli; label from the status in PepcDB or PDB records
Measured Attribute: soluble on expression in E. coli

MSSSNENAGKHSYLRSLISGLSSQGICAYVYASSGYGESSTDIVFTGKAFIAEAGEIVEEMERFRYEERMIISDIDVSRIQTERLINSSFKAAVTFHTHDEKFNQLPFKLRSRQESLPMTRRVLEHHHHHH
soluble
MGSDKIHHHHHHMSVLNAKECVSPITRSVKYHQQSAEIRALQLQSYKMAKMALDNNLKLVKDKKPAVILDLDETVLNTFDYAGYLIKNCIKYTPETWDKFEKEGSLTLIPGALDFLEYANSKGVKIFYISNRTQKNKAFTLKTLKSFKLPQVSEESVLLKEKGKPKAVRRELVAKDYAIVLQVGDTLHDFDAIFAKDAKNSQEQRAKVLQNAQKFGTEWIILPNSLYGTWEDEPIKAWQNKK
not soluble
MAHHHHHHMKPTKPLLYITGYGPFLEVTENPSATIAQSVAEQVRQSGEADVHHETLDVNLEAVSKYFNRLNESVTAHLEATHPENRVLLVNVGLHSREKEKVLRLEVRAFNELEGNPIDDELPLSTCKDSAFVKGCKLETTTALIEELNAIERNGSDHHEKPRWIISYDAGRYYCNYALYRGVKMQEALNSRVFAVFLHIVASTVVCMEEQVAQVRMLVSHLLKHMEAVE
soluble
MAHHHHHHMPQRSHVPLASPSPLNAPPPLTSRPGPVNYCGAHAEPAAGLNYTHHDDHRSVFRDQASCDPSPSQRALHQQQVHRPRAVSPGPHDGSAPHVSALVARGAVIRADELETILDEQNYIWQMEEYRFRTERQKRLTALQHRQHELMLESARYDQAVAEVERQLARERQRLEELRQMMARNATTSCSPIDREHGLQDPPTAMSDAPHVIARNSSAMHHGQARDHAYSAPHDAPYFPTGASDGLSAMNEEEVIAEV
not soluble

* * *

assay: soluble on expression in E. coli; label from the status in PepcDB or PDB records
Measured Attribute: soluble on expression in E. coli

HPISLMRAPVNEIMVGLGYYEVMPFTLTSEKVNFENMCREKTDDVTYVLHPISEDQTMLRTTVLPNLLEILALNQHRELPQKIFEFGEVVSNETTGQHVAAVSIHPQANFTEVYEVVDAFMREMMLSYEVKESKDPAFLEGRRADVYVNGKKLGVFGELQPEVISKFSLGYAVVGFELDLNDLIGKN
not soluble
SGARRMETDYNPVELSSMSGFEEGSELNGFEGADMKDMQLEAEAVVNDVLFAVNHMFVSKSMPCADDVAYINVETKERNRYCLELTEAGLRVVGYAFDQVEDHLQTPYHETVYSLLDTLSPAYREAFGNALLQRLEALKRDGQS
soluble
GPGSMAVQPGKVLAEQFSRQGIQYEESTDVLWCSLCTKADSLEIISRATVEDVLEHCRLRQHLLLMEKETVKEHYCPVEINGRSFLLDHNCVYPSTMFGKGRMLLDDTLGCVMTEDVCGGVKLLPRHKYTVVEIVIPPAGTPIPKDPSYYVERPVRSRKCHEKFDSWIQVHNSSVEGESALMKRRRIAFSQLNM
not soluble
MSHHNPLVSVVIPSKNRPDLVIATLVSVIDQTYDNIEIIVVDDGSDMPLAPLLKDRFSDRVLCLRNDQSLGGAVARNRGAQSAHGDYITFLDDDDLWLPKKLEMQVDAFSKHGVDIGVVYCGFDFLCKEEIVPRQNKFHNDYDLSIAVLSGCPFGSPTPLIRKHYFDMVGGFDRELPSCQDWDLWIRLSKVCGFYPVKESLALYRVHGDQISTNLRKKIDGRKMVLAKHYDEIKNYPRVLSAHYSRIGSLCVLADEHVEARDFFSKALASNMFDGGSFVHLVLQFLCRPLEKWLIERFSVNTIDGIKVIHLEHHHHHH
not soluble
MGSDKIHHHHHHMKIAITGKGGVGKTFIASTLMRLFEKNGFKVIGVDCDPNPTLALAFGVEEEIVPLSKRHDIIEERTGAKPGTYGNIFKINPKVDDLIDKVGYKIGNITLLVMGTIEEGGEGCVCPASVLLRRLLRHLILKRDEVVILDMEAGIEHFGRKTIDTVDLMLIVIEPTKKSLITAKRMKKLANDLGIKNLGVIVNKVRNEDKELLKDIIKEELGLEVLGFVPYDEEVIKSEFLGKPINLDSKAAKEIEKIFNYIIKLKNTT
not soluble

For the next question, use this sequence.
Query :: Requested field: soluble on expression in E. coli. Item: GSHMGDKEKETLFKDYLNLIVVKMTEWIGNLEKAEFDVFLERSTPPHSDSDGLLFLDGTKTCFQMFTQQVEVAAGTNQAKILVGVVERFSDLLTKRQKNWISKISEEIKKQINYNHKYDIDPESITPEDECPGGLVEYLIAVSNDQMKAADYAVAISSKYGKLVSKVYEKQITNHLEGTLDGFAEVAQCSSLGLITLMFDDLRKPYQEIFSKTWYMGSQAQQIADTLDEYLLDIKPQMNSVLFVNFIDNVIGETIIKFLTALSFEHSFKNKNNKFLEAMKRDFEIFYQLFVKVLDGNESKDTLITQNFTVMEFFMDLSCEPIDSILDIWQKYLEVYWDSRIDLLVGILKCRKDVSSSERKKIVQQATEMLHEYRRNMEANGVDREPTLMRRFVLEFEKQ
Result :: soluble
